Source listed as patent US11319315B2.

# TESTED_SYSTEM: human LPA1 (Homo sapiens)
# Construct: expressed in transfected cells; host or cells: Chinese hamster ovary (CHO) cells
# Sequence (Q92633 whole entry): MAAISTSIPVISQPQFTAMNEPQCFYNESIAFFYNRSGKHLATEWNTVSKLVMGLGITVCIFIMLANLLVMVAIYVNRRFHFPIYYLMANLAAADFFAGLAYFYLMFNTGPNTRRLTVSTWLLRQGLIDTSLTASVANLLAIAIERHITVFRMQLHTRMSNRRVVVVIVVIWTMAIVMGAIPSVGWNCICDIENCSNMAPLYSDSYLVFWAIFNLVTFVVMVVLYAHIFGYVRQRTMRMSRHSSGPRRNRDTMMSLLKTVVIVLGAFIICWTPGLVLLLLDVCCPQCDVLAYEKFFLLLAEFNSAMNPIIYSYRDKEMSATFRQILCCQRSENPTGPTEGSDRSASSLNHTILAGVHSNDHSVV
# TEST_METHOD_NOTES: LPA1 functional antagonist assay (LPA-induced calcium flux in CHO cells overexpressing human LPA1)
# Assay type: cell-based
# TEST_SETTINGS: inhibition of calcium flux induced by 10 nM LPA, CHO cells overexpressing human LPA1; read-out: hLPA1 IC50
VALUE_TYPE: IC50 (µM)

Examples with answers:
CC[C@@H](OC)c1nc(NCc2c(-c3ccc(O[C@H]4CCC[C@H](C(=O)O)C4)c(C)n3)nnn2C)no1 (single isomer, unassigned) [Example 216]; 0.121
Cc1nc(-c2nnn(C)c2CNc2ncn(-c3cc(F)cc(F)c3)n2)ccc1O[C@H]1CCC[C@H](C(=O)O)C1 [Example 211]; 0.045
Cc1nc(-c2nnn(C)c2COc2noc(CC3CC3)n2)ccc1O[C@H]1CCC[C@H](C(=O)O)C1; 0.011
Cc1nc(-c2nnn(C)c2Cc2nc(-c3ccccc3)no2)ccc1O[C@H]1CCC[C@H](C(=O)O)C1; 0.079
Cc1nc(-c2nnn(C)c2CNc2nc(C(C)(C)C)no2)ccc1O[C@H]1CCC[C@H](C(=O)O)C1; 0.478
Cc1nc(-c2nnn(C)c2CNc2cnn(C3CCCC3)n2)ccc1O[C@H]1CCC[C@H](C(=O)O)C1; 0.039

1. Cc1nc(-c2nnn(C)c2Cn2nnc(OCC3CC3)n2)ccc1O[C@H]1CCC[C@@H](C(=O)O)C1
2. Cc1nc(-c2nnn(C)c2Cn2nnc(CC(C)C)n2)ccc1O[C@H]1CCC[C@H](C(=O)O)C1
Which of the two items, 1 and 2 , has the greater recorded IC50? State your choice using its label.
1
(1: 0.192 µM, 2: 0.028 µM)

a. CCC(C)n1cnc(NCc2c(-c3ccc(O[C@H]4CCC[C@H](C(=O)O)C4)c(C)n3)nnn2C)n1 (stereo partly shown)
b. Cc1nc(-c2nnn(C)c2CNc2ncn(CC(C)C)n2)ccc1O[C@H]1CCC[C@H](C(=O)O)C1
Lower value of IC50 belongs to which: a or b ? Your choice should be expressed through its label.
b
(b: 0.125 µM, a: 0.221 µM)

P. Cc1nc(-c2nnn(C)c2CNc2nnc(CCC(C)C)o2)ccc1O[C@H]1CCC[C@H](C(=O)O)C1
Q. Cc1nc(-c2nnn(C)c2CNc2nnc(Cc3ccccc3)o2)ccc1O[C@H]1CCC[C@H](C(=O)O)C1
R. CCc1nnn(Cc2c(-c3ccc(O[C@H]4CCC[C@H](C(=O)O)C4)c(C)n3)nnn2C)n1
Write the entries in order, lowest recorded IC50 first. When ranking, write the labels in the order the request describes.
P, Q, R
(P: 0.045 µM, Q: 0.096 µM, R: 0.414 µM)

a. CCc1nc(OCc2c(-c3ccc(O[C@H]4CCC[C@H](C(=O)O)C4)c(C)n3)nnn2C)no1
b. Cc1nc(-c2nnn(C)c2CNc2nc(C(F)(F)F)ns2)ccc1O[C@H]1CCC[C@H](C(=O)O)C1
Would you kindly point out which of a and b has the smaller IC50 figure? Refer to your chosen entry by its label in the reply.
a
